assay: total protein half-life in vivo (active degradation + dilution); higher = more stable protein; settings: wild type E. coli NCM3722; growth: C-lim chemostat; doubling time 6 h
Kind request: treat 5 h as inclusive, so total protein half-life in vivo at 5 h or higher is Met, anything lower is Not met.

Sequence input: MKTLILFSTRDGQTREIASYLASELKELGIQADVANVHRIEEPQWENYDRVVIGASIRYGHYHSAFQEFVKKHATRLNSMPSAFYSVNLVARKPEKRTPQTNSYARKFLMNSQWRPDRCAVIAGALRYPRYRWYDRFMIKLIMKMSGGETDTRKEVVYTDWEQVANFAREIAHLTDKPTLK [P0ACB4]
Cat: Met
//
Sequence input: MKKIAAISLISIFIMSGCAVHNDETSIGKFGLAYKSNIQRKLDNQYYTEAEASLARGRISGAENIVKNDATHFCVTQGKKMQIVELKTEGVGLHGVARLTFKCGE
Cat: Met
//
Sequence input: MSFSVQETLFSLLQHNAISGHENAVADVMLCEFRRQAKEVWRDRLGNVVARYGSDKPDALRLMIFAHMDEVGFMVRKIEPSGFLRFERVGGPAQVTMAGSIVTLTGDKGPVMGCIGIKSYHFAKGDERTQSPSVDKLWIDIGAKDKDDAIRMGIQVGTPVTLYNPPQLLANDLVCSKALDDRLGCTALLGVADAISTMELDIAVYLVASVQEEFNIRGIVPVLRRVKPDLAIGIDITPSCDTPDLHDYSEVRINQGVGITCLNYHGRGTLAGLITPPRLIRMLEQTALEHNIPVQREVAPGVITETGYIQVEQDGIPCASLSIPCRYTHSPAEVASLRDLTDCIRLLTALAGMSAAHFPVEPDSGTTQEAHPL
Cat: Met
//
Sequence input: MPLSAQQLAAQKNLSYVLAEKLAQRILKGEYEPGTILPGEIELGEQFGVSRTAVREAVKTLTAKGMVLPRPRIGTRVMPQSNWNFLDQELLTWWMTEENFHQVIDHFLVMRICLEPQACLLAATVGTAEQKAHLNTLMAEMAALKENFRRERWIEVDMAWHEHIYEMSANPFLTSFASLFHSVYHTYFTSITSDTVIKLDLHQAIVDAIIQSDGDAAFKACQALLRSPDK
Cat: Met
//
Sequence input: MNKTQLIDVIAEKAELSKTQAKAALESTLAAITESLKEGDAVQLVGFGTFKVNHRAERTGRNPQTGKEIKIAAANVPAFVSGKALKDAVK [P0ACF0]
Cat: Met
//
Sequence input: MVRKGCNSLVRAEKILTHIAWVGMASYMELLNKFQYPKSSLLNLLNVMVDCGFLIKNKNGYYSLGIKNYELGCQALHRQNIFEVTKRPMQELSLKSGLVCHLGAMESISAIYLDKIESPDSVPTSKSWIGKKLELHITALGKALLAWKTREELDYFLEALTLTPHTRNTFTDKKLFLEELQKTRLRGWAIDNEESTYGAVCLSMPVFNMYNRVNYAISLSGDPVVYSGNKIDSYLELLRKCAEQISYGLGYRNENEHLRKGN
Cat: Not met
//
Sequence input: MIKRVLVVSMVGLSLVGCVNNDTLSGDVYTASEAKQVQNVSYGTIVNVRPVQIQGGDDSNVIGAIGGAVLGGFLGNTVGGGTGRSLATAAGAVAGGVAGQGVQSAMNKTQGVELEIRKDDGNTIMVVQKQGNTRFSPGQRVVLASNGSQVTVSPR [P0A905]
Cat: Met
//
Sequence input: MKAFDLHRMAFDKVPFDFLGEVALRSLYTFVLVFLFLKMTGRRGVRQMSLFEVLIILTLGSAAGDVAFYDDVPMVPVLIVFITLALLYRLVMWLMAHSEKLEDLLEGKPVVIIEDGELAWSKLNNSNMTEFEFFMELRLRGVEQLGQVRLAILETNGQISVYFFEDDKVKPGLLILPSDCTQRYKVVPESADYACIRCSEIIHMKAGEKQLCPRCANPEWTKASRAKRVT
Cat: Met
//
Sequence input: MQWQTKLPLIAILRGITPDEALAHVGAVIDAGFDAVEIPLNSPQWEQSIPAIVDAYGDKALIGAGTVLKPEQVDALARMGCQLIVTPNIHSEVIRRAVGYGMTVCPGCATATEAFTALEAGAQALKIFPSSAFGPQYIKALKAVLPSDIAVFAVGGVTPENLAQWIDAGCAGAGLGSDLYRAGQSVERTAQQAAAFVKAYREAVQ [Q6BF16]
Cat: Not met
//
Sequence input: MANWQSIDELQDIASDLPRFIHALDELSRRLGLNITPLTADHISLRCHQNATAERWRRGFEQCGELLSENMINGRPICLFKLHEPVQVAHWQFSIVELPWPGEKRYPHEGWEHIEIVLPGDPETLNARALALLSDEGLSLPGISVKTSSPKGEHERLPNPTLAVTDGKTTIKFHPWSIEEIVASEQSA
Cat: Not met
